measurement_target: T1, native human ESRRG protein (Estrogen-receptor related receptor gamma) (human, UniProt P62508 229-458, limits assumed)
T1 construct: the screened protein is called 'native human ESRRG protein'; also called ESSRG; ERRγ
T1 sequence (looked up): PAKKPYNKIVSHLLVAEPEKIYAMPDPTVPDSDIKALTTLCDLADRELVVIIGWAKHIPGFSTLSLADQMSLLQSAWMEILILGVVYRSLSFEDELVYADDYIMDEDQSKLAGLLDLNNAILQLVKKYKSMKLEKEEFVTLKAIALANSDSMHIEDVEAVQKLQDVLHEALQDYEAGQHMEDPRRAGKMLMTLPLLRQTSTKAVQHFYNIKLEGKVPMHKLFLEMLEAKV
test: peptide microarray, Iteration 2; bound ESRRG detected with fluorescent anti-ESRRG mAb
Where no end group is shown, it is not given here.
test_readout: log2 (Sample B/Sample A)
Number only, no unit.

Ac-EDSYPRDG | 4.08
Ac-LILLQQLD | 2.82
Ac-PGKGHFPI | 1.94
Ac-WRSYPRRA | 2.07
Ac-TGKLKQDG | 3.55
Ac-RLLHYGSY | 2.05
Ac-MYKLKQDN | 2.02

From here, focus on the item given below.
Incoming: Given Ac-FYNMYLLN , state its recorded log2 (Sample B/Sample A).
Outgoing: 2.63

Cited source for all entries: patent US20130053541A1
